Target: T1, monkey MSLN on HEK293T-monkey MSLN recombinant cells (monkey)
T1 construct: Full-length precursor as transfected; processing on the cell is not described; also called HEK293-monkey MSLN
T1 chain: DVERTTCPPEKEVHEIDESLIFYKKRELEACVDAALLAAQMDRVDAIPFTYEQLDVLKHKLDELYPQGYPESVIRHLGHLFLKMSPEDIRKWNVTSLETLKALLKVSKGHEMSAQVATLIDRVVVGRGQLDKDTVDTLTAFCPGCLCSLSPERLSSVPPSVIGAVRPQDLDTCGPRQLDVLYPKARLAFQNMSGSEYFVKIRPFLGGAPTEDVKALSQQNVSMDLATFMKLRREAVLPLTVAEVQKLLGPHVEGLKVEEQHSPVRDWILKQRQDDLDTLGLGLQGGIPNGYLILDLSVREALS
Assay: FACS, HEK293T-monkey MSLN cells
property label: Maximum_MFI (MFI)
Field format: number, assumed MFI, no unit text.

{"binder": "F7.44.20-H1 (scFv, not shown: small tags and cut ends, also called S009-F7.44.20 humanized antibody VH1 + VL1) scFv: EVQLVQSGAEVKKPGASVKVSCKASGYTFTDYNMDWVRQAPGQGLEWMGDINPSTGGTIYNQKFNGRVTMTEDKSTSTVYMELSSLRSEDTAVYYCARRRIGTGYFDVWGQGTTVTVSSGGGGSGGGGSGGGGSEIVLTQSPDFQSVTPKEKVTITCSASSSVISSYLSWYQQKPDQSPKLLIYRTSNLASGVPSRFSGSGSGTDFTLTINSLEAEDAATYYCHQWSSFPYTFGGGTKVEIK", "unit of measurement": "MFI", "Maximum_MFI": 6550}
{"binder": "F7.44.20-H3 (scFv, not shown: small tags and cut ends, also called S009-F7.44.20 humanized antibody VH1 + VL3) scFv: EVQLVQSGAEVKKPGASVKVSCKASGYTFTDYNMDWVRQAPGQGLEWMGDINPSTGGTIYNQKFNGRVTMTEDKSTSTVYMELSSLRSEDTAVYYCARRRIGTGYFDVWGQGTTVTVSSGGGGSGGGGSGGGGSEIVLTQSPATLSLSPGERATLSCSASSSVISSYLSWYQQKPGQSPRLLIYRTSNLASGIPARFSGSGSGTDYTLTISSLEPEDFAVYYCHQWSSFPYTFGGGTKVEIK", "unit of measurement": "MFI", "Maximum_MFI": 7000}
{"binder": "F7.44.20-H2 (scFv, not shown: small tags and cut ends, also called S009-F7.44.20 humanized antibody VH1 + VL2) scFv: EVQLVQSGAEVKKPGASVKVSCKASGYTFTDYNMDWVRQAPGQGLEWMGDINPSTGGTIYNQKFNGRVTMTEDKSTSTVYMELSSLRSEDTAVYYCARRRIGTGYFDVWGQGTTVTVSSGGGGSGGGGSGGGGSEIVLTQSPDFQSVTPKEKVTITCSASSSVISSYLSWYQQKPDQSPKLLIYRTSNLASGVPSRFSGSGSGTDYTLTINSLEAEDAATYYCHQWSSFPYTFGGGTKVEIK", "unit of measurement": "MFI", "Maximum_MFI": 6950}
{"binder": "F7.44.20-H6 (scFv, not shown: small tags and cut ends, also called S009-F7.44.20 humanized antibody VH1a + VL2) scFv: EVQLVQSGAEVKKPGASVKVSCKASGYTFTDYNMDWVRQAPGQGLEWMGDINPSTGGTIYNQKFQGRVTMTEDKSTSTVYMELSSLRSEDTAVYYCARRRIGTGYFDVWGQGTTVTVSSGGGGSGGGGSGGGGSEIVLTQSPDFQSVTPKEKVTITCSASSSVISSYLSWYQQKPDQSPKLLIYRTSNLASGVPSRFSGSGSGTDYTLTINSLEAEDAATYYCHQWSSFPYTFGGGTKVEIK", "unit of measurement": "MFI", "Maximum_MFI": 6020}
{"binder": "F7.44.20-H4 (scFv, not shown: small tags and cut ends, also called S009-F7.44.20 humanized antibody VH1 + VL4) scFv: EVQLVQSGAEVKKPGASVKVSCKASGYTFTDYNMDWVRQAPGQGLEWMGDINPSTGGTIYNQKFNGRVTMTEDKSTSTVYMELSSLRSEDTAVYYCARRRIGTGYFDVWGQGTTVTVSSGGGGSGGGGSGGGGSEIVLTQSPATLSLSPGERATLSCSASSSVISSYLSWYQQKPGSSPRLLIYRTSNLASGIPARFSGSGSGTDYTLTISSLEPEDFAVYYCHQWSSFPYTFGGGTKVEIK", "unit of measurement": "MFI", "Maximum_MFI": 6450}

What does the record list as Maximum_MFI for F7.44.20-H11 (scFv, not shown: small tags and cut ends, also called S009-F7.44.20 humanized antibody VH2 + VL3) scFv: EVQLVQSGAEVKKPGASVKVSCKASGYTFTDYNMDWVRQAPGQGLEWMGDINPSTGGTIYNQKFNGRVTMTEDKSASTVYMELSSLRSEDTAVYYCARRRIGTGYFDVWGQGTTVTVSSGGGGSGGGGSGGGGSEIVLTQSPATLSLSPGERATLSCSASSSVISSYLSWYQQKPGQSPRLLIYRTSNLASGIPARFSGSGSGTDYTLTISSLEPEDFAVYYCHQWSSFPYTFGGGTKVEIK ? 7210

How about F7.44.20-H9 (scFv, not shown: small tags and cut ends, also called S009-F7.44.20 humanized antibody VH2 + VL1) scFv: EVQLVQSGAEVKKPGASVKVSCKASGYTFTDYNMDWVRQAPGQGLEWMGDINPSTGGTIYNQKFNGRVTMTEDKSASTVYMELSSLRSEDTAVYYCARRRIGTGYFDVWGQGTTVTVSSGGGGSGGGGSGGGGSEIVLTQSPDFQSVTPKEKVTITCSASSSVISSYLSWYQQKPDQSPKLLIYRTSNLASGVPSRFSGSGSGTDFTLTINSLEAEDAATYYCHQWSSFPYTFGGGTKVEIK ? 7460

How about F7.44.20-H10 (scFv, not shown: small tags and cut ends, also called S009-F7.44.20 humanized antibody VH2 + VL2) scFv: EVQLVQSGAEVKKPGASVKVSCKASGYTFTDYNMDWVRQAPGQGLEWMGDINPSTGGTIYNQKFNGRVTMTEDKSASTVYMELSSLRSEDTAVYYCARRRIGTGYFDVWGQGTTVTVSSGGGGSGGGGSGGGGSEIVLTQSPDFQSVTPKEKVTITCSASSSVISSYLSWYQQKPDQSPKLLIYRTSNLASGVPSRFSGSGSGTDYTLTINSLEAEDAATYYCHQWSSFPYTFGGGTKVEIK ? 9020
